- assay: NCI Yeast Anticancer Drug Screen. Data for the mlh1 rad18 strain (AID 175)
- run-conditions: S. cerevisiae mlh1 rad18 strain growth inhibition; at 50.0 µM; hits give high values
Compounds without any hit were thinned out: in the full panel of roughly 79,000, 15% have a hit.
measurement-type: growth inhibition (%)
Respond numerically; units are % and should not be typed.

I'd like to know its growth inhibition. The molecule in question is Fc1ccccc1CSc1n[nH]c(=S)c2nc[nH]c12
12

What measured growth inhibition goes with CCOC(=O)C1CC(O)c2ccc(Cl)cc2N1 (stereo not drawn) ?
6.15

Request the reported growth inhibition associated with N#CCC(=O)N1CCc2ccccc2C1
14.2

Requested read-out: growth inhibition. Entry: CC(C)C1(C(C)C)OCC(CO)O1 (stereo not drawn)
-9.3

Quick one: growth inhibition for c1ccc2cc(Nc3ccc(Nc4ccc5ccccc5c4)cc3)ccc2c1 ?
2.6

GET /values?readout=growth inhibition&item= Nc1cc(=O)n(-c2ccccc2)[nH]1
22

Look up growth inhibition: CCCCN=C=C(c1ccccc1)c1ccccc1
-15.1

What does the record list as growth inhibition for Nc1ccc(F)cc1 ?
-31.9

May I ask what growth inhibition has been recorded for Cc1onc(-c2c(F)cccc2Cl)c1-c1ncc(-c2ccc(Cl)cc2)o1 ?
16.4

What measured growth inhibition goes with Cc1cc(Br)ccc1N=c1scc(-c2ccc(Cl)cc2)n1C ?
15.1

growth inhibition lookup needed for S=C(Nc1ccccc1)Nc1ccccc1S , thanks.
-18.9

What does the data say about its growth inhibition? Entry: CCOC(=O)c1ccc(Nc2nc3ccccc3o2)cc1
1.7

Consider the molecule CSc1nc(C)cc(N(C)c2ccccc2)n1 and give its measured growth inhibition.
14.6
